As an illustration, consider measured log10 Ki for molecules on Melanin-concentrating hormone receptor 1 (Homo sapiens, UniProt Q99705).
Sequence (Q99705 whole entry): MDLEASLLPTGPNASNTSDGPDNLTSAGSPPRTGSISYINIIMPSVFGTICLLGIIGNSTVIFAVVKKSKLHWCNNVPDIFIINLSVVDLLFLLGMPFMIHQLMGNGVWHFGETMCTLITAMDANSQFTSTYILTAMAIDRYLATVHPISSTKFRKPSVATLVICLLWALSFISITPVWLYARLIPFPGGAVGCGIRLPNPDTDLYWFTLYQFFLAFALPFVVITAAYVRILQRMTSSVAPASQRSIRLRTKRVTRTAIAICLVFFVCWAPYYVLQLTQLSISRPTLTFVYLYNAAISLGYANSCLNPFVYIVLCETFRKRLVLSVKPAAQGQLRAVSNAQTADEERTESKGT
Remember, log10 of Ki, in nM.

Past entries and their recorded results:
Ask: Given the entry CN(CC(=O)N(C)C)Cc1cnc2c(Cn3cnc4cc(-c5ccc(Cl)cc5)sc4c3=O)cccc2c1 , report its measured log10 Ki.
Result: 2.13

Ask: Which log10 Ki is listed for CN1CCN(Cc2cnc3c(CNC(=O)c4ccc(-c5ccc(F)cc5)nc4)cccc3c2)CC1 ?
Result: 3.55

Ask: Endpoint output: log10 Ki of O=c1c2sc(-c3ccc(Cl)cc3)cc2ncn1Cc1cccc2cc(CN3CCCC3)cnc12 . Value?
Result: 1.96

Ask: Item under review: O=C(NCc1cccc2cc(CN3CC[C@H](O)C3)cnc12)c1ccc(-c2ccc(F)cc2)nc1 . Reported log10 Ki?
Result: 3.06

Continuing:
Ask: Given CS(=O)(=O)N1CCN(Cc2cnc3c(Cn4cnc5cc(-c6ccc(Cl)cc6)sc5c4=O)cccc3c2)CC1 , state its recorded log10 Ki.
Result: 2.89

Ask: Record request: log10 Ki value, item CN1CCN(Cc2cnc3c(Cn4cnc5cc(-c6ccc(Cl)cc6)sc5c4=O)cccc3c2)CC1
Result: 2.04

---

List of IC50 tested on 5-hydroxytryptamine receptor 2C (Homo sapiens, UniProt P28335).
Sequence (P28335 whole entry): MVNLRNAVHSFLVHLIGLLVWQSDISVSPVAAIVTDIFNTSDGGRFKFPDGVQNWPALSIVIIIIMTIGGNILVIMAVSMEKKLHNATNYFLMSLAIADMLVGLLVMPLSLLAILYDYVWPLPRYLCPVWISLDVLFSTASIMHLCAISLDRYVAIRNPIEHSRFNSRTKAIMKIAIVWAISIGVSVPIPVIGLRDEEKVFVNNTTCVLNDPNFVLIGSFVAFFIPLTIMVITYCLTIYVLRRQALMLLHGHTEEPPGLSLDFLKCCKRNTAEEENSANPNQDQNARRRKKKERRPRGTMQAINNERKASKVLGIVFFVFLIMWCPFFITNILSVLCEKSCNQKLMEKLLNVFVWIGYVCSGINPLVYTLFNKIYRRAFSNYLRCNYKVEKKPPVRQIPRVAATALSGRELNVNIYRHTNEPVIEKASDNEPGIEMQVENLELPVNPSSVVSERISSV

Ask: Observed IC50 on 5-hydroxytryptamine receptor 2C (Homo sapiens, UniProt P28335) for CS(=O)(=O)N1CCN(Cc2cnc3c(Cn4cnc5cc(-c6ccc(Cl)cc6)sc5c4=O)cccc3c2)CC1 , please.
Result: > 100 µM

Ask: Provide value of IC50 for this record tested with 5-hydroxytryptamine receptor 2C (Homo sapiens, UniProt P28335): CN(C)Cc1cnc2c(Cn3cnc4cc(-c5ccc(Cl)cc5)sc4c3=O)cccc2c1
Result: 1.31 µM

Kindly review the next molecule as well.
Ask: Lookup: IC50 / 5-hydroxytryptamine receptor 2C (Homo sapiens, UniProt P28335) / CS(=O)(=O)C1CCN(Cc2cnc3c(CNC(=O)c4ccc(-c5ccc(F)cc5)cc4)cccc3c2)CC1
Result: > 100 µM

---

Ki tested on Melanin-concentrating hormone receptor 1 (Homo sapiens, UniProt Q99705): recorded values
Answer in nM, number only, no unit symbol.

Consider the reported Ki for these compounds:
Ask: Lab note: need Ki for CS(=O)(=O)C1CCN(Cc2cnc3c(CNC(=O)c4ccc(-c5ccc(F)cc5)cc4)cccc3c2)CC1 on Melanin-concentrating hormone receptor 1 (Homo sapiens, UniProt Q99705), anyone have it?
Result: 310

Ask: Request body: readout Ki, system Melanin-concentrating hormone receptor 1 (Homo sapiens, UniProt Q99705), query O=c1c2sc(-c3ccc(Cl)cc3)cc2ncn1Cc1cccc2cc(CN3CCC(O)CC3)cnc12 . Return the value.
Result: 51

Ask: Please state recorded Ki (tested on Melanin-concentrating hormone receptor 1 (Homo sapiens, UniProt Q99705)) of O=C(NCc1cccc2cc(CN3CCOCC3)cnc12)c1ccc(-c2ccc(F)cc2)nc1
Result: 20100

Ask: API: value(readout=Ki, system=Melanin-concentrating hormone receptor 1 (Homo sapiens, UniProt Q99705)) for record CCN(CC)Cc1cnc2c(Cn3cnc4cc(-c5ccc(Cl)cc5)sc4c3=O)cccc2c1
Result: 126

Then this compound:
Ask: Return Ki measured with Melanin-concentrating hormone receptor 1 (Homo sapiens, UniProt Q99705) given this compound: CN(Cc1cccc2cc(CN3CCCCC3)cnc12)C(=O)c1ccc(-c2ccc(F)cc2)cc1
Result: 31

// data source = ChEMBL document CHEMBL1149504
